# Test system: CD2F1 mice, L1210 leukemia ip, survival T/C
# MEASUREMENT PROTOCOL: NCI In Vivo Anticancer Drug Screen. Data for tumor model L1210 Leukemia (intraperitoneal) in CD2F1 (CDF1) mice
# CONDITION: endpoint: mean survival time; dose: 400.0 mg/kg/injection; schedule: Q01DX009 (ip); vehicle: saline with Tween-80; higher = longer survival
Toxic doses and inconclusive results are not listed.
METRIC: T/C

MOLECULE: CC(O)(c1ccccc1)c1ccccc1
MEASURED: 96 % of control

MOLECULE: COc1ccc2cc(CC(=O)c3ccccc3)ccc2c1
MEASURED: 90 % of control

MOLECULE: CC(C)OC(N)=O
MEASURED: 105 % of control

MOLECULE: CCc1ccc(NC(=O)c2cccc(Cl)c2)cc1
MEASURED: 98 % of control

MOLECULE: Cc1ccc(Nc2ccc(O)c3c2C(=O)c2c(O)ccc(Nc4ccc(C)cc4)c2C3=O)cc1
MEASURED: 98 % of control

MOLECULE: Cc1cccc(S(=O)(=O)N(C)C)c1
MEASURED: 92 % of control

MOLECULE: Clc1nc(Cl)nc(-c2cn(-c3ccccc3)c3ccccc23)n1
MEASURED: 96 % of control

MOLECULE: C1=CCC(CNc2ncnc3nc[nH]c23)=CC1
MEASURED: 88 % of control

MOLECULE: COc1ccc(N=C(c2ccccc2)c2ccccc2)cc1
MEASURED: 91 % of control

MOLECULE: COC(=O)[C@]1(C)CCC[C@]2(C)[C@H]3CC4OO[C@@]3(CC[C@H]21)[C@H]1O[C@@]41C(C)C
MEASURED: 98 % of control

MOLECULE: O=C(O)C1C2CCC1C(O)C2 (stereo not drawn)
MEASURED: 88 % of control

MOLECULE: S=C(NCCSC(=S)Nc1ccccc1)Nc1ccccc1
MEASURED: 106 % of control

MOLECULE: CCOC(=O)Nc1ccccc1F
MEASURED: 95 % of control
